# Experimental System: T1, human LIGHT (TNFSF14), full length, membrane-bound (214E allele) (human, UniProt O43557 1-240)
# T1 construct: also called membrane LIGHT; human membrane LIGHT
# T1 sequence (O43557 whole entry K214E): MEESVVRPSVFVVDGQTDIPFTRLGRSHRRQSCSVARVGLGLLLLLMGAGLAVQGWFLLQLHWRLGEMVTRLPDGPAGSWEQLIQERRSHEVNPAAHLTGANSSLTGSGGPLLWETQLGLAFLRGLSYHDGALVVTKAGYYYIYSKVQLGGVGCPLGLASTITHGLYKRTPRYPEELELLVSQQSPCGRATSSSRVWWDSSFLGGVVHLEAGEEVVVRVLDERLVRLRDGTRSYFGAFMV
# Experimental Details: flow cytometry, maximum signal compared with F19 and F23
Readout Kind: binding ratio, mAb per LIGHT trimer (mAb per LIGHT trimer)
Answers are plain numbers, in mAb per LIGHT trimer.

Hi there! I need binding ratio, mAb per LIGHT trimer for each item below, if you can.
1. 3C10 (antibody, human IgG4, V domains shown, chimeric human IgG4 (S-to-P, L-to-E at 248), human CL; also called Parental 3C10) VH: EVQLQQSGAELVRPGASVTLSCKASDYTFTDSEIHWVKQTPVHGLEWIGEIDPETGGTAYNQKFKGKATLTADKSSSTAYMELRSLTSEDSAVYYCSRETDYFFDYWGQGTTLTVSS VL: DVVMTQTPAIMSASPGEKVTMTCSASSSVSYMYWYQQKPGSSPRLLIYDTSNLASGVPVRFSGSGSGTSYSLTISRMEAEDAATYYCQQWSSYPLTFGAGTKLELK
2. 2E08 (antibody, human IgG4, V domains shown, chimeric human IgG4 (S-to-P, L-to-E at 248), human CL; also called Parental 2E08) VH: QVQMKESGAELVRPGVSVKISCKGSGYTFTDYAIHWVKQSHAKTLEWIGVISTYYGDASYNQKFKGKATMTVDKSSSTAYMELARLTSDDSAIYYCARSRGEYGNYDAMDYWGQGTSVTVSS VL: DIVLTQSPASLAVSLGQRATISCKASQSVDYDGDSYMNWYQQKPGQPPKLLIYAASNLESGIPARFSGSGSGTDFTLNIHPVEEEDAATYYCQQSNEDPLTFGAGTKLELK
3. 3A07 (antibody, human IgG4, V domains shown, chimeric human IgG4 (S-to-P, L-to-E at 248), human CL; also called Parental 3A07) VH: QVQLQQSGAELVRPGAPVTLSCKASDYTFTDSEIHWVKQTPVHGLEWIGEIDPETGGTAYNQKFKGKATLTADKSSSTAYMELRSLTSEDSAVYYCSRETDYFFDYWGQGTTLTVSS VL: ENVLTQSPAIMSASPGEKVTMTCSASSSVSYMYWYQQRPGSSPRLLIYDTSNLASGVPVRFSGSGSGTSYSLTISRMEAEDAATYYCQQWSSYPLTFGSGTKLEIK

Result:
1. 1
2. 1
3. 1

Hey, just so you know, these numbers are from patent US20230035798A1.
